System: Vero E6 infected with SARS-CoV-2
assay: inhibition of SARS-CoV-2 cytopathic effect; higher = more antiviral protection, active = above 15
measurement.conditions: 8.33 nM; 48 h
quantity.kind: inhibition of SARS-CoV-2 cytopathic effect (%)
Field format: number, assumed %, no unit text.

Recorded inhibition of SARS-CoV-2 cytopathic effect, per entry:
O=S(=O)(c1cccc2cnccc12)N1CCCNCC1 [fasudil]	-3.05
O=C(c1ccccn1)c1cnn2c(-c3ccncc3)ccnc12 [ocinaplon]	-1.43
CC(=O)Nc1ccc(O)cc1 [paracetamol]	1.77
O=C(N[C@H]1CN2CCC1CC2)c1cc2cccc(Cl)c2s1	-1.25
C[C@@H]1CCO[C@H]2Cn3cc(C(=O)NCc4ccc(F)cc4F)c(=O)c(O)c3C(=O)N12 [dolutegravir]	1.42

For the compound `O=C(OCCN1CCCCC1)c1c[nH]c2ccccc12` , give its reported inhibition of SARS-CoV-2 cytopathic effect.
2.59

Quote inhibition of SARS-CoV-2 cytopathic effect reported for CCNC(=O)CCC/C=C\C[C@@H]1[C@@H](/C=C/[C@@H](O)CCc2ccccc2)[C@H](O)C[C@@H]1O [bimatoprost] please.
-0.42
